- assay.protocol: Confirmatory screen NINDS Rhodamine qHTS for Zika virus inhibitors (AID 1347161); note: nearly all actives have a fitted effect of over 60% in size; note: potency is the fitted concentration of half-maximal effect
- settings: purified enzyme assay, Rhodamine110 substrate fluorescence, 15 min; series mostly up to 114 µM
Inconclusive results are not listed. Activity calls are given as the source filed them. Calls come from the whole dose curve; as a rule, active = well fitted inhibition curve with a large enough effect; inconclusive = small, poorly fitted or top-dose-only effect; inactive = no such curve, though single readings can be large or run the other way.
endpoint.label: Potency

# count of solved cases: 8
>>> readout_value("O=c1oc2ccc3ccccc3c2cc1-c1nnc(Nc2ccc(Cl)cc2Cl)s1")
"inactive"
>>> readout_value("CC(C)OC(=O)c1ccc(NC(=O)CSc2nc(-c3cccs3)cc(C(F)(F)F)n2)cc1")
"inactive"
>>> readout_value("COC(=O)c1ccc(NC(=O)CSc2ccc(-c3sc(-c4ccccc4)nc3C)nn2)cc1")
"inactive"
>>> readout_value("O=C(OCC#CCSc1nnc(-c2cccc3ccccc23)o1)c1cccc(C(F)(F)F)c1")
"inactive"
>>> readout_value("O=C(OCC#CCSc1nnc(-c2cccc3ccccc23)o1)c1sc2ccccc2c1Cl")
"inactive"
>>> readout_value("CCOC(=O)c1ccc(NC(=O)c2nc(SCc3ccccc3F)ncc2Cl)cc1")
"inactive"
>>> readout_value("Cc1csc2nc(COC(=O)c3ccc(NC(=O)c4ccccc4Br)cc3)cc(=O)n12")
"inactive"
>>> readout_value("CC(Oc1ccccc1)C(=O)Nc1ccc(C(=O)OCc2cc(=O)n3nc(C(C)C)sc3n2)cc1 (stereo unspecified)")
"inactive"

Batch request: Potency for each of the following compounds.
1. O=C(OCC#CCSc1nnc(-c2ccccc2F)o1)c1ccc(F)cc1
2. COC(=O)C1=C(c2ccccc2)c2ccccc2S(=O)(=O)N1CC(=O)Nc1ccccc1C(F)(F)F
3. Cc1ccc(NC(=O)c2ccc3c(O)c(S(=O)(=O)c4ccccc4)c(=O)[nH]c3c2)cc1Cl
4. Cc1cc(C)cc(C(=O)N(C)[C@H](Cc2ccc(-c3ccccc3)cc2)C(=O)N[C@@H](Cc2c[nH]c3ccccc23)C(=O)O)c1
5. COc1ccc(S(=O)(=O)c2cc(NS(=O)(=O)c3ccc(Cl)cc3)c(C)c(C)c2O)cc1
6. O=C(OCC#CCSc1nnc(-c2cccc3ccccc23)o1)c1ccc(Cl)c(C(F)(F)F)c1

a:
1. inactive
2. inactive
3. 6.31 µM (active)
4. 1.75 µM (active)
5. inactive
6. inactive

Batch request: Potency for each of the following compounds.
1. COC(=O)c1ccc(C(=O)Nc2ccc(-c3nc4cc(NC(=O)c5ccc(C(=O)OC)cc5)ccc4o3)cc2)cc1
2. O=C(O)CSc1nc2ccc(NC(=O)COc3ccc(Cl)cc3)cc2s1

a:
inactive
20 µM (active)

---

- assay.protocol: Primary qHTS for inhibitors of nuclear receptor binding SET domain protein 2 (NSD2) in an RCH-ACV wild type WT cells (2C) (AID 1645877); note: nearly all actives have a fitted effect of over 70% in size
- settings: RCH-ACV (leukaemia line) NSD2 WT (2C) viability, CellTiter-Glo, 72 h; series mostly up to 44.9 µM
Results filed as inconclusive are left out. Activity calls are given as the source filed them. The call rests on the fitted dose curve; in most records, active means well fitted inhibition curve with a large enough effect; inconclusive means small, poorly fitted or top-dose-only effect; inactive means no such curve, though single readings can be large or run the other way.
Form entry, call: pick from T = active, F = inactive

>>> classification("Cn1cnc(-c2nccc3c(=O)[nH]c(OCCCC(F)(F)F)nc23)c1")
"T"
>>> classification("Cc1cc(N=Nc2ccc(S(=O)(=O)Nc3ccccn3)cc2)c(N)cc1O")
"T"

Would you kindly look at the next entry?
q: How was "Cc1[nH]c(/C=C2\C(=O)Nc3ccccc32)c(C)c1CCC(=O)O" classified in this test?
a: F

---

- assay.protocol: COV-362 Cancer Cell Toxicity qHTS against the NCATS CANVASS Library (AID 1347352)
- settings: COV-362 viability, CellTiter-Glo luminescence, 72 h; series mostly up to 38.3 µM
Results filed as inconclusive are left out. Active and inactive are the calls of the source. The call rests on the fitted dose curve; in most records, active means well fitted cell-killing curve with a large enough effect; inconclusive means small, poorly fitted or top-dose-only effect; inactive means flat fitted curve, though single readings scatter.
Form entry, call: pick from 1 (yes) (active), 0 (no) (inactive)

Please review the entries below; each comes with its answer.
>>> classification("C=C1/C=C\\C(CCC)=C\\c2csc(n2)C(C)NC(=O)C[C@@]2(CC(=O)O)CCC(=C)[C@H](C1)S2 (stereo partly specified)")
"0 (no)"
>>> classification("OCc1ccc2ocnc2c1")
"0 (no)"
>>> classification("O=C(O)CC1OC(=O)c2c(O)cccc21 (stereo unspecified)")
"0 (no)"
>>> classification("CC(C)=CCC/C(C)=C/Cc1c(O)c(CC=C(C)C)c(O)c2c(=O)c3cc(O)ccc3oc12")
"1 (yes)"
>>> classification("C=C1C[C@@]23C=CC(=O)[C@@](C)(CCC(=O)Nc4c(O)ccc(C(=O)O)c4O)C2C[C@@H]1CC3O (stereo partly specified)")
"0 (no)"
>>> classification("CO[C@@H]1C[C@@H](C[C@H]2CC[C@H](C)[C@H]([C@@H](C)C(=O)O)O2)O[C@]2(O[C@](C)([C@H]3CC[C@@](C)([C@@H]4O[C@@H]([C@H]5O[C@](C)(O)[C@H](C)C[C@@H]5C)C[C@@H]4C)O3)C[C@H]2C)[C@@H]1C")
"1 (yes)"
>>> classification("C=CC(C)(C)C(=O)[C@@H](C)[C@@H]1CC[C@](C)(C=C)O1")
"0 (no)"
>>> classification("C=C[C@@]1(C)CC[C@@H]([C@H](C)C(=O)/C=C/C(C)C)O1")
"0 (no)"
>>> classification("C/C(=C\\[C@H](C)C(=O)CCCC1CC(=O)NC(=O)C1)C(O)[C@@H](C)[C@H](O)C/C=C/CC/C=C/C(=O)O (stereo partly specified)")
"0 (no)"
>>> classification("CO[C@@H]1[C@H](O)[C@@H](C)O[C@@H](OC[C@H]2/C=C/C=C/C(=O)C(C)C[C@H](C)C(O[C@@H]3O[C@H](C)CC4(OC(=O)O[C@@H]4C)C3O)[C@@H](C)/C=C/C(=O)OC2C)[C@@H]1OC (stereo partly specified)")
"0 (no)"

q: How was C=C1C[C@@]23C=CC(=O)[C@@](C)(CCC(=O)Nc4c(O)ccc(C(=O)O)c4O)C2C[C@@H]1CC3 (stereo partly specified) classified in this test?
a: 0 (no)

---

- target.of.assay: Furin (Homo sapiens) (UniProt P09958)
- Sequence (P09958 whole entry, looked up): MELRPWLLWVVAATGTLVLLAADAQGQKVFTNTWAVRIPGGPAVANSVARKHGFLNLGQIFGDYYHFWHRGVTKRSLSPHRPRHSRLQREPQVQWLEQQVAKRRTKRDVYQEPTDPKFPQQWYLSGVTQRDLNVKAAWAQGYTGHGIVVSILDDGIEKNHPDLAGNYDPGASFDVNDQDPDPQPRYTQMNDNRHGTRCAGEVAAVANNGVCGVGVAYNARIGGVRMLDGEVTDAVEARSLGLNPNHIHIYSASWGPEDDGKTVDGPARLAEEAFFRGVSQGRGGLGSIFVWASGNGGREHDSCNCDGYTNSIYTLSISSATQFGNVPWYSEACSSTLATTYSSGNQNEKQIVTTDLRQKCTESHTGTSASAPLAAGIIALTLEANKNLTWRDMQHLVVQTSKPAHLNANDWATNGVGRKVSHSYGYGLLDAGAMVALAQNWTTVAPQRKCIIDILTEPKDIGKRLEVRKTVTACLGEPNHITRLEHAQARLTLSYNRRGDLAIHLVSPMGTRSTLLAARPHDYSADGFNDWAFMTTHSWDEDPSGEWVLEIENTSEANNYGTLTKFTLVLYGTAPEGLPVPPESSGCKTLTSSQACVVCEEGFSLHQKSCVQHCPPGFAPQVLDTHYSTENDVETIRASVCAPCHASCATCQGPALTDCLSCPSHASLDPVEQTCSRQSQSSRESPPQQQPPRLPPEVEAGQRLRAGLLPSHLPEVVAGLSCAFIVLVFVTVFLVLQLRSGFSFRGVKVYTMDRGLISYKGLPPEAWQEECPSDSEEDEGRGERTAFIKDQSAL
- assay.protocol: Furin counterscreen qHTS for Zika virus inhibitors (AID 1347149);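 note: purified recombinant full-length human furin enzyme at 5 nM; fluorescence gain from furin cutting a BOC-RVRR-AMC peptide substrate over 15 min; top concentration of the series differs between compounds; plate controls were no-inhibitor control for no effect and no-enzyme control for full effect; nearly all actives have a fitted effect of over 70% in size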
- settings: furin enzymatic counterscreen, fluorogenic substrate; series mostly up to 114 µM
Inconclusive results are not listed. Calls of active or inactive are those of the source. Calls come from the whole dose curve; as a rule, active = well fitted inhibition curve with a large enough effect; inconclusive = small, poorly fitted or top-dose-only effect; inactive = no such curve, though single readings can be large or run the other way.
Form entry, call: pick from yes = active, no = inactive

>>> classification("COC(=O)c1ccc(C(=O)Nc2ccc(-c3nc4cc(NC(=O)c5ccc(C(=O)OC)cc5)ccc4o3)cc2)cc1")
"no"

q: How was "O=c1oc2cc(O)ccc2cc1-c1nc(-c2ccc(Cl)c(Cl)c2)cs1" classified in this test?
a: no

q: Moving on to the next compound: CCOc1ccc(C2C(=O)N(C3CCCCC3)CC(=O)N2Cc2ccc(F)cc2)cc1OC (stereo not given)
a: no

---

- assay.protocol: qHTS Assay for Lipid Storage Modulators (AID 1519)
- settings: Drosophila S3 cells, BODIPY lipid droplet/cell ratio, laser cytometry; measured here: lipid channel max response; cells loaded with oleic acid
Results filed as inconclusive are left out.
endpoint.label: max response (%)
Answers are plain numbers, in %.

>>> readout_value("N[C@](CC1c2ccccc2Oc2ccccc21)(C(=O)O)[C@@H]1C[C@@H]1C(=O)O")
20

Batch request: max response for each of the following compounds.
1. N#C/C(=C\c1ccc(O)c(O)c1)C(=O)Nc1ccccc1
2. N[C@H](C(=O)O)c1ccc(C(=O)O)cc1
3. O=c1c(O)cc(C2Oc3cc(O)cc(O)c3CC2O)cc2c(C3Oc4cc(O)cc(O)c4CC3O)cc(O)c(O)c12 (stereo not given)
4. CC(C)=CCC/C(C)=C/CC/C(C)=C/CC/C(C)=C/CO

a:
[-66.1, -7.12, 27.3, 21.5]

---

- assay.protocol: SDT Cancer Cell Toxicity qHTS against the NCATS CANVASS Library (AID 1347365); note: nearly all actives have a fitted effect of over 60% in size
- settings: SDT dog glioma viability, ATP luminescence, 72 h; series mostly up to 46.1 µM
Records with an inconclusive call do not appear. Calls of active or inactive are those of the source. Calls follow the shape of the dose curve; as a rule, active = well fitted cell-killing curve with a large enough effect; inconclusive = small, poorly fitted or top-dose-only effect; inactive = flat fitted curve, though single readings scatter.
Form entry, call: pick from TRUE for active, FALSE for inactive

>>> classification("CN1C(=O)[C@]23SS[C@@]1(C)C(=O)N2[C@H]1Nc2ccccc2[C@]1(c1c[nH]c2ccccc12)[C@@H]3O")
"TRUE"
>>> classification("C[C@@H](O)[C@H]1OC(=O)C=C2[C@]3(C)[C@H]4[C@H](OC(=O)[C@@]4(C)[C@@H](O)[C@H]4O[C@H]43)[C@H]3O[C@@]231")
"TRUE"
>>> classification("C=C1C[C@@]23C=CC(=O)[C@@](C)(CCCC(C)C(=O)O)[C@@H]2C[C@@H]1CC3 (stereo partly drawn)")
"FALSE"
>>> classification("O=C1C[C@@H](c2ccc(O)c(-c3c(O)cc(O)c4c3O[C@H](c3ccc(O)cc3)CC4=O)c2)Oc2cc(O)cc(O)c21")
"FALSE"
>>> classification("Oc1ccc(C2c3c(O)cc(O)cc3[C@@H]3C(c4ccc(O)cc4)c4c(O)cc(O)cc4[C@H]23)cc1 (stereo partly drawn)")
"FALSE"

q: How was "C[C@@]12CCC[C@@](C)(C(=O)O)[C@H]1C[C@@H](O)[C@]13C[C@H]4C[C@H](O[C@@]4(C)C1)[C@@H]23" classified in this test?
a: FALSE

q: Moving on to the next compound: "O=Cc1ccc2n1C[C@@]1(OC2)O[C@H](CO)[C@@H](O)[C@@H]1O"
a: FALSE

q: Moving on to the next compound: "OCc1ccc2ocnc2c1"
a: FALSE

src = PubChem BioAssay (NCATS)
